# System: Human immunodeficiency virus 1
# protocol: Anti-HIV activity against drug resistant HIV-1 harboring Y188L mutant infected in human MT4 cells assessed as inhibition of virus-induced cytopathic effect by MTT assay
# Type: functional, organism-based
# condition: Human immunodeficiency virus 1, MT4
pEC50: −log10 of the molar value.
Please provide measured pEC50 for the entries that follow.

Please look up its pEC50: Cc1c(C(N=[N+]=[N-])c2ccccc2)nc(SC(C)C)[nH]c1=O (stereo not given) < 3.40

Please look up its pEC50: CCc1c(C(N=[N+]=[N-])c2ccc(Br)cc2)nc(SC(C)C)[nH]c1=O (stereo not given) 3.80

Please look up its pEC50: Cc1c(C(N=[N+]=[N-])c2cccc3ccccc23)nc(SC(C)C)[nH]c1=O (stereo not given) < 3.47

Please look up its pEC50: CCc1c(C(N=[N+]=[N-])c2cc(C)cc(C)c2)nc(SC(C)C)[nH]c1=O (stereo not given) < 3.46

Please look up its pEC50: CCc1c(C(N=[N+]=[N-])c2ccc(OC(F)(F)F)cc2)nc(SC(C)C)[nH]c1=O (stereo not given) 4.21

Please look up its pEC50: CCc1c(C(N=[N+]=[N-])c2ccc(-c3ccccc3)cc2)nc(SC(C)C)[nH]c1=O (stereo not given) 4.18

Please look up its pEC50: CCc1c(C(N=[N+]=[N-])c2ccc(C)cc2)nc(SC(C)C)[nH]c1=O (stereo not given) < 3.44

Please look up its pEC50: CC(C)Sc1nc(C(N=[N+]=[N-])c2ccc3ccccc3c2)c(C(C)C)c(=O)[nH]1 (stereo not given) < 4.23

Please look up its pEC50: Cc1c(C(C#N)c2ccccc2)nc(SC(C)C)[nH]c1=O (stereo not given) < 3.69

Please look up its pEC50: CCc1c(C(N=[N+]=[N-])c2ccc(Cl)cc2)nc(SC(C)C)[nH]c1=O (stereo not given) < 3.46
